Test system: L428 cells
Assay: Proliferation assay, L428 Hodgkin Lymphoma cells (CellTiter Glo)
Type: cell-based
Details: Homo sapiens, L-428; L428, MTAP status wt, MTAP mRNA level high; average values from two or more experiments; read-out: IC50, proliferation
quantity: IC50 (µM)
Report only the number, with the unit µM understood.

Short answer for CC(=O)N1CCC(Nc2cc(C(=O)NC[C@H](O)CN3CCc4ccccc4C3)ncn2)CC1 [Compound B, reference compound] : IC50 was 0.583

The reported value for Nc1nc2cc(CN3C(=O)c4cc(F)ccc4[C@]34CCN(Cc3ccc(F)cc3)C4=O)[nH]c2cc1F [Compound A] in terms of IC50 is 2.52

----------
Tested on: L540 cells
Test: Proliferation assay, L540 Hodgkin Lymphoma cells (CellTiter Glo)
Assay type: cell-based
Details: Homo sapiens, L-540, read-out: IC50, proliferation
quantity: IC50 (µM)
The answer is to be given in µM; state only the numeric part.

Observed IC50 on L540 cells, entry "CC#CCN1CC[C@@]2(C1=O)c1ccc(F)cc1C(=O)N2Cc1cc2nc(N)c(F)cc2[nH]1" , equals 0.252

// data source = patent US20260048040A1
